Recorded pIC50, one value per entry.
molecular target: NAD-dependent protein deacetylase sirtuin-1 (Homo sapiens, UniProt Q96EB6); test: Inhibition of human recombinant SIRT1 using Fluor-de-Lys as substrate incubated for 60 mins prior to substrate addition measured after 60 mins by fluorometric analysis
Sequence (Q96EB6 whole entry): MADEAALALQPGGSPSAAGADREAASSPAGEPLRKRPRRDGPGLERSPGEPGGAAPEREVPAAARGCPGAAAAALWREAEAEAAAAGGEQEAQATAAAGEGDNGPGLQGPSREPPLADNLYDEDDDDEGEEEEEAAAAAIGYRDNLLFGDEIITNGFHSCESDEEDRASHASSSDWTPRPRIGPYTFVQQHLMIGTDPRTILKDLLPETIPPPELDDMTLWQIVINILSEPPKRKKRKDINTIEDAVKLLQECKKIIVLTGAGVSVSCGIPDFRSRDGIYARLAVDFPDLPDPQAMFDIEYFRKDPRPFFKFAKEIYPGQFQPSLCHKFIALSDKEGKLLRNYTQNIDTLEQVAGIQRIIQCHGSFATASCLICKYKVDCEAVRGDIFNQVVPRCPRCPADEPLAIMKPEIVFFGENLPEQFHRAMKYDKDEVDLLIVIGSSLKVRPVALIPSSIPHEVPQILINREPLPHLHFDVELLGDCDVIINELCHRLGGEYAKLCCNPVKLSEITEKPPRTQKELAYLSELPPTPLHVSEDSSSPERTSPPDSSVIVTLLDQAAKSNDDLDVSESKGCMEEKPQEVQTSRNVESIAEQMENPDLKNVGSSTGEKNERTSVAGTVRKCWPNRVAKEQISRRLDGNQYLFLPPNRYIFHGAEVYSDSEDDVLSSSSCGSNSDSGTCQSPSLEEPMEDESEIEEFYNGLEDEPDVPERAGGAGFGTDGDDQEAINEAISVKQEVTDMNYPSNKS
pIC50: −log10 of the molar value.

NC(=O)c1ccccc1Nc1cccc(-c2cn(CCC3CCCC3)nn2)c1    < 4.00

Then this compound:
// query Please give the measured pIC50 for this compound: NC(=O)c1ccccc1Nc1ccc(-c2cn(Cc3ccccc3)nn2)cc1
// result < 4.00

* * *

target: NAD-dependent protein deacetylase sirtuin-2 (Homo sapiens) (UniProt Q8IXJ6); details: at 10 µM
Description: Inhibition of human recombinant SIRT2 using Fluor-de-Lys as substrate at 10 uM incubated for 60 mins prior to substrate addition measured after 60 mins by fluorometric analysis
The source made the active and inactive calls. The rule behind the calls is not given here.
parameter: inhibition

Worked examples, 5 molecules total:
COc1ccc(CN=[N+]=[N-])cc1    Active
[N-]=[N+]=NC[S+]([O-])c1ccccc1 (stereo unspecified)    Active
[N-]=[N+]=NCCc1ccc2ccccc2c1    Active
[N-]=[N+]=Nc1cccc2ccccc12    Active
N#C/C(=C\c1ccc(-c2cc(Cl)ccc2Cl)o1)C(=O)Nc1cccc2ncccc12    Active

// query Hi! What's the reported inhibition for [N-]=[N+]=NCCc1ccc(F)cc1 on NAD-dependent protein deacetylase sirtuin-2 (Homo sapiens) (UniProt Q8IXJ6)?
// result Active

// query Query for NAD-dependent protein deacetylase sirtuin-2 (Homo sapiens) (UniProt Q8IXJ6): what inhibition does the record show for [N-]=[N+]=Nc1ccc(F)cc1 ?
// result Active

// query Fill in the recorded inhibition for this molecule, with NAD-dependent protein deacetylase sirtuin-2 (Homo sapiens) (UniProt Q8IXJ6) as test system: [N-]=[N+]=NCCc1ccc(Cl)cc1
// result Active

* * *

target: NAD-dependent protein deacetylase sirtuin-3, mitochondrial (Homo sapiens, UniProt Q9NTG7); experiment: Inhibition of human recombinant SIRT3 using Fluor-de-Lys as substrate incubated for 60 mins prior to substrate addition measured after 60 mins by fluorometric analysis
Sequence (Q9NTG7 whole entry): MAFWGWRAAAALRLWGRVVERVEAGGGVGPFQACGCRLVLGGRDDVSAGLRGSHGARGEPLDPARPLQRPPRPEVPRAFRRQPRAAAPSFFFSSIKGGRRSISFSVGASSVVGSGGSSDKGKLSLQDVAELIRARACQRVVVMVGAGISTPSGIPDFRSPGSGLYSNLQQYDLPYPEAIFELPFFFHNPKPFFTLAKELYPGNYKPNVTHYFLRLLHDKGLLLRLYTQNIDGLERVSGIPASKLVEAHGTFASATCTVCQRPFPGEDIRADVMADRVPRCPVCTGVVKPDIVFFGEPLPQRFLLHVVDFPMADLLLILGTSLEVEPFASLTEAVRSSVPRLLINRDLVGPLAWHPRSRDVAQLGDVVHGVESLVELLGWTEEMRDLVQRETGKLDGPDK
pIC50: −log10 of the molar value.
parameter: pIC50

NC(=O)c1ccccc1Nc1ccc(-c2cn(Cc3ccccc3)nn2)cc1    < 4.00

Next:
// query Entry under review: NC(=O)c1ccccc1Nc1cccc(-c2cn(CCC3CCCC3)nn2)c1 . Reported pIC50?
// result < 4.00

* * *

target: NAD-dependent protein deacetylase sirtuin-2 (Homo sapiens, UniProt Q8IXJ6); test: Inhibition of human recombinant SIRT2 using Fluor-de-Lys as substrate incubated for 60 mins prior to substrate addition measured after 60 mins by fluorometric analysis
Sequence (Q8IXJ6 whole entry): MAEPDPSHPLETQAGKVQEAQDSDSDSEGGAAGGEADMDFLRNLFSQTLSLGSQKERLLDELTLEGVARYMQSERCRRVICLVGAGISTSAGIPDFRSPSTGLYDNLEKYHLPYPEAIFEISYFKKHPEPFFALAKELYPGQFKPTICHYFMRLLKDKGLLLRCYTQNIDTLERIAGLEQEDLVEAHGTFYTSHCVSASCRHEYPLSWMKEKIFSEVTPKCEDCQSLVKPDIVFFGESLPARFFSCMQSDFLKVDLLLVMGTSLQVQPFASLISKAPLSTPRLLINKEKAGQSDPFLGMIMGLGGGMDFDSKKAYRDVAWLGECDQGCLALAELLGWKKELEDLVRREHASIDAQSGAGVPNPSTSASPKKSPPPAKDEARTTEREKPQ
parameter: IC50
Please don't drop the unit; write it after the number.

NC(=O)c1ccccc1Nc1cccc(-c2cn(CCC3CCCC3)nn2)c1    5.3 µM

We now examine a further molecule.
// query Need IC50 of NC(=O)c1ccccc1Nc1ccc(-c2cn(Cc3ccccc3)nn2)cc1 , thanks.
// result 6.3 µM

* * *

biological target: NAD-dependent protein deacetylase sirtuin-2 (Homo sapiens) (UniProt Q8IXJ6); conditions: at 10 µM
Calls of active or inactive are those of the source. The rule behind the calls is not given here.
parameter: inhibition

[N-]=[N+]=NCCc1cccc(Cl)c1    Active
Cc1ccc(N=[N+]=[N-])cc1C    Active
Cc1ncsc1CCN=[N+]=[N-]    Active
[N-]=[N+]=NCc1cccc2ccccc12    Active
Cc1cccc(CCN=[N+]=[N-])c1    Active

// query Would you kindly share the measured inhibition for [N-]=[N+]=Nc1ccccc1 ?
// result Active

// query # query: inhibition of entry [N-]=[N+]=NCCc1ccccc1C(F)(F)F
// result Active

// query Given the molecule NC(=O)c1ccccc1Nc1cccc(-c2cn(CCC3CCCC3)nn2)c1 , what is its reported inhibition?
// result Active

// query Which inhibition is listed for [N-]=[N+]=NCCc1ccc([N+](=O)[O-])cc1 ?
// result Active

// query Which inhibition is listed for [N-]=[N+]=NCc1cccc(-c2ccccc2)c1 ?
// result Active

* * *

target: UniProt Q8IXJ6; settings: at 10 µM
Activity calls are given as the source filed them. How the calls were made is not given here.
parameter: inhibition

Past entries and their recorded results:
[N-]=[N+]=NCCc1ccccc1Cl    Active
C#Cc1cccc(Nc2ccccc2C(N)=O)c1    Active
Cc1cccc(C)c1NC(=O)CN=[N+]=[N-]    Active
COc1ccc(CCN=[N+]=[N-])cc1    Active
[N-]=[N+]=NCC12CC3CC(CC(C3)C1)C2    Active
[N-]=[N+]=NCCc1ccccc1[N+](=O)[O-]    Active

// query Request - read-out inhibition | tested on UniProt Q8IXJ6 | compound Cc1ccc(CCN=[N+]=[N-])cc1
// result Active

// query Any idea what inhibition came out for [N-]=[N+]=NCCC1CCCC1 on UniProt Q8IXJ6?
// result Active

// query What reported inhibition corresponds to COc1ccccc1CCN=[N+]=[N-] on UniProt Q8IXJ6?
// result Active

// query Find inhibition (UniProt Q8IXJ6) for the entry Cc1ccc(N=[N+]=[N-])cc1
// result Active

// query Lab note: need inhibition for [N-]=[N+]=NCCc1c[nH]c2ccccc12 on UniProt Q8IXJ6, anyone have it?
// result Active

// query Entry [N-]=[N+]=NCS(=O)(=O)c1ccccc1 , system UniProt Q8IXJ6: what inhibition was measured?
// result Active

// query Request - read-out inhibition | tested on UniProt Q8IXJ6 | compound COc1ccc(N=[N+]=[N-])cc1
// result Active

* * *

target: NAD-dependent protein deacetylase sirtuin-2 (Homo sapiens); details: at 10 µM
The source made the active and inactive calls. No rule for the calls is given here.
parameter: inhibition

Use the examples below as a reference point.
COc1cccc(CCN=[N+]=[N-])c1    Active
[N-]=[N+]=NCCc1cccc(C(F)(F)F)c1    Active
[N-]=[N+]=NCCc1cccc(F)c1    Active
Cc1ccccc1CCN=[N+]=[N-]    Active
[N-]=[N+]=NCCc1ccccc1F    Active
[N-]=[N+]=NCCC12CC3CC(CC(C3)C1)C2    Active
[N-]=[N+]=Nc1ccccc1-c1ccccc1    Active
[N-]=[N+]=Nc1ccc(O)cc1    Active
[N-]=[N+]=NCCc1ccc(C(F)(F)F)cc1    Active
[N-]=[N+]=NCCc1ccccc1    Active

// query // inhibition lookup, key: [N-]=[N+]=Nc1ccc(N)cc1
// result Active

// query What value of inhibition has been reported for the following molecule? [N-]=[N+]=N/C=C/c1ccccc1
// result Active

// query Using the record for [N-]=[N+]=NCc1ccc2ccccc2c1 , report its inhibition.
// result Active

// query # lookup: inhibition of [N-]=[N+]=NCSc1ccccc1
// result Active

// query Quick check: inhibition of [N-]=[N+]=NCC(=O)Nc1ccc(F)cc1 ?
// result Active
